Assign Potency to each entry below.
# experiment.summary: qHTS assay to identify small molecule agonists of the progesterone receptor (PR) signaling pathway - cell viability counter screen (AID 1346799); also: potency is read from the fitted curve at half-maximal effect; nearly all actives have a fitted effect of over 45% in size
# conditions.used: PR-UAS-bla HEK293T viability, CellTiter-Glo luminescence, 16 h; series mostly up to 92.4 µM
Results filed as inconclusive are left out. Calls of active or inactive are those of the source. Calls follow the shape of the full dose curve.

Working through the 4 molecules below one at a time, give Potency for each.
1. CCCCCOc1ccccc1/C(=C\SC)n1ccnc1
2. [O-][n+]1ccccc1SSc1cccc[n+]1[O-]
3. CCCCCCCCCCCCCCCC(=O)OC[C@H](O)[C@H]1OC(=O)C(O)=C1O
4. CN1CCN(CCC(=O)N2c3ccccc3Sc3ccc(C(F)(F)F)cc32)CC1

Reply:
7.5 µM (active)
0.116 µM (active)
27.3 µM (active)
23.7 µM (active)

###

# target: Bile acid receptor (Homo sapiens)
# experiment.summary: qHTS assay to identify small molecule antagonists of the farnesoid-X-receptor (FXR) signaling pathway (AID 743217)
# conditions.used: HEK293T FXR-UAS-bla, beta-lactamase ratio, CDCA-stimulated, 16 h; series mostly up to 62.6 µM
Inconclusive results are not listed. Calls of active or inactive are those of the source. Calls come from the whole dose curve; as a rule, active = well fitted inhibition curve with a large enough effect in the signal ratio in the repeat runs (not every such curve was filed as active); inconclusive = weak or mixed curves, or effect the other way; inactive = no such curve, though single readings can be large or run the other way; the % refers to the signal ratio.
# output must be one of Yes = active, No = inactive

Solved cases (5 shown):
C[C@H](CCC(=O)O)[C@H]1CC[C@H]2[C@@H]3CC[C@@H]4C[C@H](O)CC[C@]4(C)[C@H]3CC[C@]12C ... No
CC1=C(/C=C/C(C)=C/C=C/C(C)=C/C=O)C(C)(C)CCC1 ... Yes
CC1=C(C(=O)OC(C)C)C(c2cccc([N+](=O)[O-])c2)C(C(=O)OC2CN(C(c3ccccc3)c3ccccc3)C2)=C(N)N1 (stereo not given) ... Yes
Oc1ccc2cc(SSc3ccc4cc(O)ccc4c3)ccc2c1 ... No
CO[Si](CCCNc1ccccc1)(OC)OC ... No

Ask: // return assay outcome for CC(C)(C)c1ccc(C(=O)O)cc1
Reply: No

###

# target: Estrogen receptor beta (Homo sapiens) (UniProt Q92731)
# Sequence (Q92731 whole entry, looked up): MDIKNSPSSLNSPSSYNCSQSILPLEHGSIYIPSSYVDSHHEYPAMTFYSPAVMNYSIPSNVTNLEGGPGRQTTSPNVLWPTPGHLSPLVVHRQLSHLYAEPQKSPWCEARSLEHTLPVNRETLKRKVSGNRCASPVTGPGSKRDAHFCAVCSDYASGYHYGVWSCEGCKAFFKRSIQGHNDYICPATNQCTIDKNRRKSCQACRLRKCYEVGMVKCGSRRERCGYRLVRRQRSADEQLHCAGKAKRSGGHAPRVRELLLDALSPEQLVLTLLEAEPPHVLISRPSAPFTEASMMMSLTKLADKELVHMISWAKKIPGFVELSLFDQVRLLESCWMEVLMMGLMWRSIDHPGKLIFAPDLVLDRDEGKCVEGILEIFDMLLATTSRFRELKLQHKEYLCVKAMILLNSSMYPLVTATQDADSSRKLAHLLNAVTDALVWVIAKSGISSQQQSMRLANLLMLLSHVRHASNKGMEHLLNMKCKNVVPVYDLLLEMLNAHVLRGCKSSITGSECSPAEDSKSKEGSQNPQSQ
# experiment.summary: qHTS assay to identify small molecule antagonists of the estrogen receptor beta (ER-beta) signaling pathway (AID 1259378)
# conditions.used: ER-beta-UAS-bla HEK293T, beta-lactamase FRET ratio, 16 h; series mostly up to 92.4 µM
# Source text: National Center for Advancing Translational Sciences [NCATS] NIH Chemical Genomics Center [NCGC] U.S. Environmental Protection Agency [EPA] National Institutes of Environmental Health Sciences [NIEHS] National Toxicology Program [NTP] U.S. Food and Drug Administration [FDA] Estrogen receptor (ER), a nuclear hormone receptor, plays an important role in development, metabolic homeostasis and reproduction. […]
Inconclusive results are not listed. Activity calls are given as the source filed them. Calls come from the whole dose curve; as a rule, active = well fitted inhibition curve with a large enough effect in the signal ratio in the repeat runs (not every such curve was filed as active); inconclusive = weak or mixed curves, or effect the other way; inactive = no such curve, though single readings can be large or run the other way; the % refers to the signal ratio.
# output must be one of active, inactive

Solved cases (6 shown):
Cc1cc(N)c(S(=O)(=O)O)cc1Cl ... inactive
C[C@@H](NCCCc1cccc(C(F)(F)F)c1)c1cccc2ccccc12 ... active
NC(=O)C1(N2CCCCC2)CCN(CCCN2c3ccccc3CCc3ccc(Cl)cc32)CC1 ... active
Cc1ccc(-n2nc(C(C)(C)C)cc2NC(=O)Nc2ccc(OCCN3CCOCC3)c3ccccc23)cc1 ... active
OCCN1CCN(CC/C=C2/c3ccccc3Sc3ccc(C(F)(F)F)cc32)CC1 ... active
Clc1ccc2nsnc2c1NC1=NCCN1 ... inactive

Ask: // return assay outcome for CC(C)(C)C(=O)OCOC(=O)C1N2C(=O)CC2S(=O)(=O)C1(C)C (stereo unspecified)
Reply: active

Ref: PubChem BioAssay (Tox21)
